Data origin, for the record: ChEMBL document CHEMBL4823263

Target: beta-catenin-B-cell lymphoma 9 protein complex (Homo sapiens, UniProt P35222)
Sequence (P35222 whole entry, the tested form may be a part): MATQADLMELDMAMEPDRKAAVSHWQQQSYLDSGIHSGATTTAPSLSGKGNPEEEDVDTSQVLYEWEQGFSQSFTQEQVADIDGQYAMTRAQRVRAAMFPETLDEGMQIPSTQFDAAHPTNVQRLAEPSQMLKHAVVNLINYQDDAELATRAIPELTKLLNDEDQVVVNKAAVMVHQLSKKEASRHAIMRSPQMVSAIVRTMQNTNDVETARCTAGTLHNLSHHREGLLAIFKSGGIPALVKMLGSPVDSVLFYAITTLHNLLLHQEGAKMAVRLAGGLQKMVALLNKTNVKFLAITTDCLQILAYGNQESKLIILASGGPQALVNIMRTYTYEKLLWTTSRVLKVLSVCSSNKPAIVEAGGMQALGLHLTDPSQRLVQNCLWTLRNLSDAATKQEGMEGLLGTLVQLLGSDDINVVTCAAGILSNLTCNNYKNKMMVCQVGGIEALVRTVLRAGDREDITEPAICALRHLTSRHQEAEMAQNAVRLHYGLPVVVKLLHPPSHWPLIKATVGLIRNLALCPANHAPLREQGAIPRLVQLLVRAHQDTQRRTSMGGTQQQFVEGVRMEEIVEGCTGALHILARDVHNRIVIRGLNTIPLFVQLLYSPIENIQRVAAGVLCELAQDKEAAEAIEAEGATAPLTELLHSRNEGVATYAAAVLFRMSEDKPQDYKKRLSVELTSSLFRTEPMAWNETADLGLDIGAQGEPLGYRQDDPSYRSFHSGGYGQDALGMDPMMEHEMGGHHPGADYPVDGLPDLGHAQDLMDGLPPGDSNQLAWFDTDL
Sequence (O00512 whole entry, further chain, the tested form may be a part): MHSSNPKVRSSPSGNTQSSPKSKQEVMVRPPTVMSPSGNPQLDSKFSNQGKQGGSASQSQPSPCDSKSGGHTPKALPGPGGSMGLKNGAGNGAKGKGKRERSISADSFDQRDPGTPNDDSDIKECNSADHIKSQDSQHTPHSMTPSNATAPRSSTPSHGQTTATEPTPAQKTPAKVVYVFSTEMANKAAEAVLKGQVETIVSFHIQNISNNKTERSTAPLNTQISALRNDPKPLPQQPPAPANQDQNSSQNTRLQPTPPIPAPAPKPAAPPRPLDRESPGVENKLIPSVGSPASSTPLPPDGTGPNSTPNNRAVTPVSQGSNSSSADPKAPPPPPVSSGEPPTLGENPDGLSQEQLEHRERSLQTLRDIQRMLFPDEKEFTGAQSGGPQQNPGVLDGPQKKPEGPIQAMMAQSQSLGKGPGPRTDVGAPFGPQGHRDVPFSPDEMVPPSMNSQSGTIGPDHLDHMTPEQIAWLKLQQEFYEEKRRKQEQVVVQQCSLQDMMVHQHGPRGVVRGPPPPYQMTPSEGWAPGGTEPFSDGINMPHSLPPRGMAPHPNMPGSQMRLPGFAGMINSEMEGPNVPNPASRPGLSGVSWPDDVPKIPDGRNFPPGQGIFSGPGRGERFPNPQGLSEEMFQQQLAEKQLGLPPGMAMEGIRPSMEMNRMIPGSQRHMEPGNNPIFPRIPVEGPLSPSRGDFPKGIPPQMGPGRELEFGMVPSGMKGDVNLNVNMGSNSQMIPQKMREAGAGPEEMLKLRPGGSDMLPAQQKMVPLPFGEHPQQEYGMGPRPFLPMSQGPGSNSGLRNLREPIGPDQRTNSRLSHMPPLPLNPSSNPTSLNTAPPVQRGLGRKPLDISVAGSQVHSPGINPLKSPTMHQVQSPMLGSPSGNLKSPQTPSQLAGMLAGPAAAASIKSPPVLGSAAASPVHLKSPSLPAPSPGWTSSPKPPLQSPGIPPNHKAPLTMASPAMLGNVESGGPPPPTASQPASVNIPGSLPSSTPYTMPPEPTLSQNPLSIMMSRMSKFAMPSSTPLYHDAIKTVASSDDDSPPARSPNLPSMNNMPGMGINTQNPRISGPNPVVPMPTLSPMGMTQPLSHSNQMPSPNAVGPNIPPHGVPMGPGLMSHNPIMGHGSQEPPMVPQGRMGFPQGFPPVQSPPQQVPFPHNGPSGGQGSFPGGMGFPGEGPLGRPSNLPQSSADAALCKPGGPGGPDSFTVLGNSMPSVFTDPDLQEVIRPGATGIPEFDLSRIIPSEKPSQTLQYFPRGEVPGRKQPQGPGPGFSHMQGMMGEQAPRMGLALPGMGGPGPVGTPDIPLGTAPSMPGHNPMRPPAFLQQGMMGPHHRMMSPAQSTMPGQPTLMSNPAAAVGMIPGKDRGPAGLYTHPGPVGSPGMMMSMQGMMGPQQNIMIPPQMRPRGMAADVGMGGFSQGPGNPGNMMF
Experiment: Inhibition of full length C-terminal 6-His-tagged beta-catenin (1 to 781 residues) (unknown origin) expressed in Escherichia coli BL21 (DE3)-N-terminal biotinylated human BCL9 (350 to 375 residues) protein-protein interaction incubated for 1 hr by Alphascreen assay
Please use the following Ki ranges when assigning a class: small value: < 6 µM; mid value: ≥ 6 µM and < 30 µM; large value: ≥ 30 µM

Check out these entries, answers already filled in.
[[record]]
compound = "CC(C)S(=O)(=O)NC(=O)C(C)(C)Oc1cccc(N2CCCC(C(=O)N(Cc3ccc(-c4cccs4)cc3)C3CC3)C2)c1 (centres undefined)"
subject_of_test = "beta-catenin-B-cell lymphoma 9 protein complex (Homo sapiens, UniProt P35222)"
class_label = "mid value"

[[record]]
compound = "CC(C)c1ccc(CN(C)C(=O)C2CCCN(c3cccc(OC(C)(C)C(=O)O)c3)C2)cc1 (centres undefined)"
subject_of_test = "beta-catenin-B-cell lymphoma 9 protein complex (Homo sapiens, UniProt P35222)"
class_label = "large value"

[[record]]
compound = "CC(C)(Oc1cccc(N2CCCC(C(=O)N(Cc3ccc(-c4cccs4)cc3)C3CC3)C2)c1)C(=O)O (centres undefined)"
subject_of_test = "beta-catenin-B-cell lymphoma 9 protein complex (Homo sapiens, UniProt P35222)"
class_label = "mid value"

[[record]]
compound = "CC(C)(Oc1cccc(N2CCC[C@@H](C(=O)N(Cc3ccc(-c4cccs4)cc3)C3CC3)C2)c1)C(=O)NS(=O)(=O)c1ccc(C#N)cc1"
subject_of_test = "beta-catenin-B-cell lymphoma 9 protein complex (Homo sapiens, UniProt P35222)"
class_label = "small value"

[[record]]
compound = "CC(C)c1ccc(CN(C(=O)C2CCCN(c3cccc(OC(C)(C)C(=O)O)c3)C2)C(C)C)cc1 (centres undefined)"
subject_of_test = "beta-catenin-B-cell lymphoma 9 protein complex (Homo sapiens, UniProt P35222)"
class_label = "large value"

[[record]]
compound = "CC(C)(Oc1cccc(N2CCCC(C(=O)N(Cc3ccc(-c4cccs4)cc3)C3CC3)C2)c1)C(=O)NS(=O)(=O)c1ccccc1 (centres undefined)"
subject_of_test = "beta-catenin-B-cell lymphoma 9 protein complex (Homo sapiens, UniProt P35222)"
class_label = "mid value"


Problem: # bin lookup: classify CC(C)c1ccc(CCNC(=O)C2CCCN(c3cccc(OC(C)(C)C(=O)O)c3)C2)cc1 (centres undefined) by its Ki
Result: large value

Problem: Repeat with Cn1cc(-c2ccc(CN(C(=O)C3CCCN(c4cccc(OC(C)(C)C(=O)O)c4)C3)C3CC3)cc2)cn1 (centres undefined)
Result: large value

Problem: Repeat with COc1cccc(S(=O)(=O)NC(=O)C(C)(C)Oc2cccc(N3CCC[C@@H](C(=O)N(Cc4ccc(-c5cccs5)cc4)C4CC4)C3)c2)c1
Result: small value

Problem: Repeat with COc1cccc(S(=O)(=O)NC(=O)C(C)(C)Oc2cccc(N3CCCC(C(=O)N(Cc4ccc(-c5cccs5)cc4)C4CC4)C3)c2)c1 (centres undefined)
Result: small value

Problem: Repeat with CC(C)(Oc1cccc(N2CCCC(C(=O)N(Cc3ccc(-c4cccs4)cc3)C3CC3)C2)c1)C(=O)NS(C)(=O)=O (centres undefined)
Result: mid value

Problem: Repeat with CC(C)c1ccc(CN(C(=O)C2CCCN(c3cccc(OC(C)(C)C(=O)O)c3)C2)C2CC2)cc1 (centres undefined)
Result: large value

Problem: Repeat with CC(C)c1ccc(CNC(=O)C2CCCN(c3cccc(OC(C)(C)C(=O)O)c3)C2)cc1 (centres undefined)
Result: large value

Problem: Repeat with CC(C)(Oc1cccc(N2CCCC(C(=O)N(Cc3ccc(-c4cccs4)cc3)C3CC3)C2)c1)C(=O)NS(=O)(=O)C1CC1 (centres undefined)
Result: mid value

Problem: Repeat with COc1ccc(S(=O)(=O)NC(=O)C(C)(C)Oc2cccc(N3CCCC(C(=O)N(Cc4ccc(-c5cccs5)cc4)C4CC4)C3)c2)cc1 (centres undefined)
Result: small value

Problem: Repeat with CC(C)(Oc1cccc(N2CCCC(C(=O)N(Cc3ccc(-c4cccs4)cc3)C3CC3)C2)c1)C(=O)NS(=O)(=O)c1cccc(O)c1 (centres undefined)
Result: small value

Problem: Repeat with CC(C)(Oc1cccc(N2CCCC(C(=O)N(Cc3ccc(-c4cn[nH]c4)cc3)C3CC3)C2)c1)C(=O)O (centres undefined)
Result: large value

Problem: Repeat with CC(C)(Oc1cccc(N2CCCC(C(=O)N(Cc3ccc(-c4cccs4)cc3)C3CC3)C2)c1)C(=O)NS(=O)(=O)c1ccc(C#N)cc1 (racemic)
Result: small value
